I'd be grateful if you could share measured binding ratio at 3.7 nM vs NIH3T3 for these entries.
# TARGET DESC: T1, human CD63 (human, UniProt P08962 2-238)
# T1 construct: stably transfected in NIH3T3/hCD63; The cell line is named under assay; also called hCD63
# T1 sequence: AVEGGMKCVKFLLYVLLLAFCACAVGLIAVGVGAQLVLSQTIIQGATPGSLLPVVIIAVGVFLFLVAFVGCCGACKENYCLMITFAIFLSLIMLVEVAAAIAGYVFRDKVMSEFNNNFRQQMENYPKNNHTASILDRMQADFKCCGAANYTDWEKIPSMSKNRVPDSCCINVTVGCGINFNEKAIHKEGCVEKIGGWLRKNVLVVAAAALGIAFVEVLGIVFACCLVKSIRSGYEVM
# PROTOCOL NOTES: ECL, LNCAP cells
Answer in fold, number only, no unit symbol.

Give the measured binding ratio at 3.7 nM vs NIH3T3 of H2M12452N (antibody, V domains shown, also called H2aM12452N) VH: QVQLQEAGPGLVKPSETLSLTCIVSGGSISGFYWNWIRQPPGKGLEWIGYFLYSGTIDYNPSLKSRVTISVDTSKNQFFLKLSFVTAADTAVYYCVRMGLGANAFDIWGRGTMVTVSS VL: EIVLTQSPGTLSLSPGERATLSCRASQTVSRSFLAWYQQKPGQAPRLLIYGPSSRATGIPDRFSGSGSGTDFTLTISRLEPEDFAVYYCQQYGNSPWTFGQGTKVEIK .
37

Bench note: what binding ratio at 3.7 nM vs NIH3T3 did H2M12385N (antibody, V domains shown, also called H2bM12385N; H2bM12385) VH: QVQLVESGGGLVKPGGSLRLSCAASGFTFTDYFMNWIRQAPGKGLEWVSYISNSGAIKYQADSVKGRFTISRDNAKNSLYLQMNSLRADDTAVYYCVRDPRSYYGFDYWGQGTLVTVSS VL: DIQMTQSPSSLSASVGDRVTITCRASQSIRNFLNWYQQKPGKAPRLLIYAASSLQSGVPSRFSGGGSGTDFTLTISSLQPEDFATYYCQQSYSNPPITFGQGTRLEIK show?
5
